Listed compounds paired with reported percent of DMSO control GFP
- RUN_DESCRIPTION: yeast TOR pathway RPL19A-GFP modulators, primary screen, cell-based, S. cerevisiae, multiplex flow cytometry (AID 1862);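 note: lower values mimic rapamycin by blocking the RPL19A rise seen in DMSO cells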
- EXPERIMENTAL_PARAMETERS: S. cerevisiae RPL19A-GFP strain, flow cytometry fluorescence, 3 h; at 10 µM; stronger effect = lower value
Results filed as inconclusive are left out.
Return type: number; implicit unit %.

>  <COMPOUND>
COC(=O)c1ccc(COc2ccc3c(C)c(C)c(=O)oc3c2C)o1

>  <MEAS_VALUE>
101

$$$$
>  <COMPOUND>
OC[C@H]1O[C@@H](n2cnc3c(NC4CCCC4)ncnc32)[C@H](O)[C@@H]1O

>  <MEAS_VALUE>
96.8

$$$$
>  <COMPOUND>
CCCCC/C=C\C[C@H](O)/C=C/c1cccc(C[C@H](O)CCCCO)n1

>  <MEAS_VALUE>
97.9

$$$$
>  <COMPOUND>
CC(C)CCOCC(=O)Nc1cccc(C(=O)O)c1

>  <MEAS_VALUE>
99.5

$$$$
>  <COMPOUND>
Cc1ncc([N+](=O)[O-])n1CC(O)CCl (stereo not drawn)

>  <MEAS_VALUE>
101

$$$$

(Q) Answer with the recorded percent of DMSO control GFP of `OC[C@H]1O[C@@H](n2cnc3c(Nc4ccccc4)ncnc32)[C@H](O)[C@@H]1O` only.
(A) 92.4

(Q) Give the reported percent of DMSO control GFP for this compound. `Cc1c(OC(=O)CNC(=O)OC(C)(C)C)ccc2c3c(c(=O)oc12)CCC3`
(A) 93.3

(Q) Quote percent of DMSO control GFP reported for CC1COc2c(N3CCN(C)CC3)c(F)cc3c(=O)c(C(=O)O)cn1c23 (stereo not drawn) please.
(A) 92.2

(Q) Report measured percent of DMSO control GFP; entry is Cn1cnc2c1c(=O)n(CC(O)CO)c(=O)n2C (stereo not drawn)
(A) 102

(Q) Give recorded percent of DMSO control GFP. `CC(=O)Oc1cc(C(C)C)c(OCCN(C)C)cc1C`
(A) 103

(Q) Give reported percent of DMSO control GFP value for OC(CCN1CCCCC1)(c1ccccc1)C1CCCCC1 (stereo not drawn)
(A) 107

(Q) Provide only the value of recorded percent of DMSO control GFP for `CCCCNc1cc(C(=O)O)cc(S(N)(=O)=O)c1Oc1ccccc1`
(A) 102

(Q) Tell me percent of DMSO control GFP reported for `CN(CCCN1CCOCC1)Cc1cn(C)nc1-c1ccccc1F`
(A) 95.5

(Q) Supply measured percent of DMSO control GFP of `CN=C1c2cc3cc(OC)ccc3n2CCN1C` in your reply.
(A) 101
